Cited source for all entries: paper PMC9352680

Record form. Attribute: pKd. Fill in for each entry.
Target: T1, PUF4 RNA-binding domain (Saccharomyces cerevisiae, UniProt P25339 537-888)
T1 sequence: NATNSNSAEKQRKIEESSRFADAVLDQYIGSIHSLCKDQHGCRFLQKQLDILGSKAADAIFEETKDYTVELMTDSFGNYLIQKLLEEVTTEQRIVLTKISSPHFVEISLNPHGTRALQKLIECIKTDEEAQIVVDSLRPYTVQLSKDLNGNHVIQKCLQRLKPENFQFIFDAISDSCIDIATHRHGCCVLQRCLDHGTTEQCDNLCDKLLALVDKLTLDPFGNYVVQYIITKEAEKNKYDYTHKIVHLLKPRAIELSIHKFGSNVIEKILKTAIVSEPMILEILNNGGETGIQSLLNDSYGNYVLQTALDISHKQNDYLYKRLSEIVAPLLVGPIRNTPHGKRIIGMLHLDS
Assay: Mg; RNA-MaP; 20 mM Na-HEPES pH 7.4, 30 mM KOAc, 0.75 mM MgCl2, 0.1% Tween-20, 5% glycerol, 0.1 mg/mL BSA, 2 mM DTT; 25 C; 0.0125-409.6 nM protein
Details: tags: N-His6-TEV cleaved; C-SNAP kept, Cy3B-labelled; label: tethered on chip by stalled RNA polymerase
Numbers only, as −log10 of the molar value.

Binder | Test Result
If_S2_P5E.1_K5.1_C5.1_H5.1_A5.1_F5.1_T5.1 (ssRNA) RNA: UUUGAUUAAUAUGAUAUCGUUCUUUCUUGUAUUAUUAUUCUUUCUCGAUAUCAUAUUAAUCUUU | 8.72
UCUCUUUGUAGUGUCUCUCUU (ssRNA) [Ic_S1_P4E.1_K4.1_C4.1_H4.1_A4.1_[T5G]_[A6T]_[T7G]_F4.1_[A9C]_T4.1] | 5.86
Id_ii_S2_P5E.2_K5.1_C5.2_[C-2A]_H5.1_A5.1_F5.1_T5.2_[A12T] (ssRNA) RNA: UUUGAUUAAUAUGAUAUCGUUCUUUCUAUUGUAUUAUUAUUUUCUUUCUCGAUAUCAUAUUAAUCUUU | 8.52
UCUCUUUCUGUAUAUUAUUUCUCUU (ssRNA) [Id_ii_S1_P4E.2_K4.1_C4.2_[C-2T]_[T-1C]_H4.1_A4.1_F4.1_T4.2_[G10T]] | 9.30
UCUCUUUUGUAUAUUAUCUCUU (ssRNA) [Ie_S1_P4E.1_K4.1_C4.1_H4.1_[+1T]_A4.1_F4.1_T4.1] | 9.25

Provide the reported pKd of each entry below, same order.
1. Ic_S2_P5E.1_K5.1_C5.1_H5.1_A5.1_[T5C]_[T6G]_[A7T]_F5.1_[T8G]_[T9C]_[A10C]_T5.1 (ssRNA) RNA: UUUGAUUAAUAUGAUAUCGUUCUUUCUUGUACGUGCCUUCUUUCUCGAUAUCAUAUUAAUCUUU
2. UCUCUUCAUAUAUAUACUUCUCUU (ssRNA) [Id_ii_S1_P3E.3_K3.2_C3.2_[T-1A]_H3.2_A3.1_F3.1_T3.2_[T9C]_[A10T]]

Result:
[6.69, 6.21]
